Below, each of the compounds is paired with its reported TGI value.
- System: SK-MEL-5 melanoma
- assay details: NCI tumour cell line growth inhibition, 48 h
Please respond with the number in µM and leave the unit unwritten.

Use these answered entries as a reference point.
compound	TGI [µM]
Oc1ccc(Cl)cc1C(c1cc(Cl)ccc1O)C(Cl)(Cl)Cl	3.05
O=C1/C(=C/c2ccc(Cl)c(Cl)c2)CN(C(=O)C(Cl)Cl)C/C1=C\c1ccc(Cl)c(Cl)c1	0.418
CCS(=O)C(=O)N(O)c1ccc(Cl)cc1 (stereo not drawn)	74.1

Please indicate TGI recorded for `Cn1cc(/C=C\[N+](=O)[O-])c2ccccc21` 31.6

Please indicate TGI recorded for `COc1cc[c]([Sn]([c]2ccc(OC)cc2)([c]2ccc(OC)cc2)[c]2ccc(OC)cc2)cc1` 28.5

Please indicate TGI recorded for COc1ccc(C(O)c2cc3c(N)c(C(=O)Nc4ccc(Cl)cc4)sc3nc2C)cc1 (stereo not drawn) 10.2

Please indicate TGI recorded for CC(C)=CCc1cc2c(cc1O)C1=C(C(=O)C3=C(C1=O)S(=O)(=O)CCN3)C(C=C(C)C)O2 (stereo not drawn) 0.66

Please indicate TGI recorded for `Clc1ccc(Nc2nnc(CNc3ccc(-c4nnc(Nc5ccc(Cl)cc5)s4)cc3)s2)cc1` 79.3

Please indicate TGI recorded for `O=[N+]([O-])C(=C/c1ccccc1)/C(=C\c1ccccc1)[N+](=O)[O-]` 30.2

Please indicate TGI recorded for C[C@H]1CC[P+](Cc2ccccc2)(c2ccccc2)C1 (stereo partly drawn) 89.9

Please indicate TGI recorded for `COc1ccccc1NC(=O)C1=C(C)NC(C)=C(C(=O)Nc2ccccc2OC)C1c1ccccc1[N+](=O)[O-]` 74.3

Please indicate TGI recorded for `COc1cc(/C=C2\C(=O)N(Cc3ccc(Cl)cc3)c3ccccc32)cc(OC)c1OC` 11.9

Please indicate TGI recorded for `CCOC(=O)C(C)(NC(=O)c1ccc(NCc2ccc3nc(NC(=O)c4ccccc4)nc(NC(=O)c4ccccc4)c3c2)cc1)C(=O)OCC` 22.7

Please indicate TGI recorded for `COc1ccc(Nc2nc3ccccc3n3cccc23)cc1OC` 24.2

Please indicate TGI recorded for `Clc1nccc2c(-c3csc(-c4c[nH]c5ccc(Br)cc45)n3)c[nH]c12` 6.42

Please indicate TGI recorded for `O=C1CCN2c3ccccc3[C@H]3Cc4cccc(c4[C@@H]2C3)CCO1` 54.3

Please indicate TGI recorded for `Cc1nc(N)nc(N)c1CCCCc1ccc(N)cc1` 16.5

Please indicate TGI recorded for `CC(C)(C)c1cc(C(=O)Nc2ccccc2C(=O)NCCN)cc(C(C)(C)C)c1` 3.27

Just for reference, PubChem BioAssay (NCI) is where these values come from.
